Let's go through some recorded pIC50 values for Tryptase from a human lung (Homo sapiens, UniProt P20231) together.
Scale explanation: pIC50 corresponds to minus log10 of a concentration expressed in moles per litre.

[
  {
    "compound": "O=C(O[C@@H]1Cc2c(cc(O)c(C3c4c(O)cc(O)cc4O[C@H](c4ccc(O)c(O)c4)[C@H]3OC(=O)c3cc(O)c(O)c(O)c3)c2O)O[C@@H]1c1ccc(O)c(O)c1)c1cc(O)c(O)c(O)c1 (some centres unmarked) [PB8GG’, procyanidin B8 3,3′-di-O-gallate]",
    "pIC50": 5.11
  }
]

For this compound ( CC(=O)N[C@@H](CC(C)C)C(=O)N[C@@H](CC(C)C)C(=O)N[C@H](C=O)CCCNC(=N)N [leupeptin, reference compound] ), measured pIC50 is 4.83
